Tested on: Rattus norvegicus
Assay: Inhibition of hepatic cholesterol synthesis in po dosed Sprague-Dawley rat assessed as incorporation of [14C]acetate into hepatic sterols
Type: functional
Measured metric: ED50
Could you write the number and then its unit?

## Input Which ED50 is listed for CC(C)c1c(C(=O)Nc2ccccc2)c(-c2ccccc2)c(-c2ccc(F)cc2)n1CC[C@@H](O)C[C@@H](O)CC(=O)O [ATORVASTATIN] ?
## Output 0.26 mg/kg

## Input Recorded ED50 for `CC(C)c1nc(N(C)c2ncnn2C)nc(-c2ccc(F)cc2)c1/C=C/[C@@H](O)C[C@@H](O)CC(=O)[O-].[Na+]` , please?
## Output 0.11 mg/kg

## Input Requested field: ED50. Item: `CC(C)c1nc(N(C)c2nnnn2C)nc(-c2ccc(F)cc2)c1/C=C/[C@@H](O)C[C@@H](O)CC(=O)[O-].[Na+]`
## Output 0.067 mg/kg

## Input Need ED50, item CC(C)c1nc(N(C)S(C)(=O)=O)nc(-c2ccc(F)cc2)c1/C=C/[C@@H](O)C[C@@H](O)CC(=O)O [ROSUVASTATIN]
## Output 0.35 mg/kg

====

Species on record: Cavia porcellus
Assay: Myotoxicity in guinea pig assessed as drug dose causing >10 fold increase in plasma creatine kinase activity relative to control
Type: organism-based
Conditions: in vivo
Measured metric: Activity

// solved cases for Activity follow
INSERT INTO results (structure_notation, observed_measurement) VALUES
  ('COCc1c(C(C)C)nc(C(C)C)c(/C=C/[C@@H](O)C[C@@H](O)CC(=O)O)c1-c1ccc(F)cc1', '0.6 mg/kg'),
  ('CC(C)c1c(C(=O)Nc2ccccc2)c(-c2ccccc2)c(-c2ccc(F)cc2)n1CC[C@@H](O)C[C@@H](O)CC(=O)O', 'Non-toxic'),
  ('CC(C)c1nc(N(C)S(C)(=O)=O)nc(-c2ccc(F)cc2)c1/C=C/[C@@H](O)C[C@@H](O)CC(=O)O', 'Non-toxic'),
  ('CC(C)c1nc(N(C)c2ncnn2C)nc(-c2ccc(F)cc2)c1/C=C/[C@@H](O)C[C@@H](O)CC(=O)[O-].[Na+]', 'Non-toxic');

## Input Requested read-out: Activity. Entry: `CC[C@H](C)C(=O)O[C@H]1C[C@H](O)C=C2C=C[C@H](C)[C@H](CC[C@@H](O)C[C@@H](O)CC(=O)O)[C@H]21`
## Output Non-toxic

====

Test system: Rattus norvegicus
Test: Inhibition of hepatic cholesterol synthesis in po dosed Sprague-Dawley rat assessed as incorporation of [14C]acetate into hepatic sterols
Format: functional
Measured metric: ED50
Show the value, then the unit it is measured in.

## Input Reported ED50 for CC[C@H](C)C(=O)O[C@H]1C[C@H](O)C=C2C=C[C@H](C)[C@H](CC[C@@H](O)C[C@@H](O)CC(=O)O)[C@H]21 [PRAVASTATIN] : what is it?
## Output 0.68 mg/kg

## Input Which measured ED50 value corresponds to COCc1c(C(C)C)nc(C(C)C)c(/C=C/[C@@H](O)C[C@@H](O)CC(=O)O)c1-c1ccc(F)cc1 [CERIVASTATIN] ?
## Output 0.09 mg/kg

## Input Would you mind telling me what ED50 value was observed for CCC(C)(C)C(=O)O[C@H]1C[C@@H](C)C=C2C=C[C@H](C)[C@H](CC[C@@H]3C[C@@H](O)CC(=O)O3)[C@H]21 [SIMVASTATIN] ?
## Output 0.4 mg/kg
